assay: chemical genetic growth profiling, strain panel (AID 1159580);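 note: tested at 20 µM; growth read once vehicle control cultures reached saturation at 30 °C; 1 = growth at the plate median or of vehicle wells; lower values mean less growth of the strain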; conditions: S. cerevisiae deletion strains, growth OD, locus YLR403W, strain SFP1, stronger effect = lower value
The campaign covered roughly 5,500 compounds. About 2,000 (36%) were called active. Another 18% or so got no clear call; they are omitted. The list shows a part of the results.
Labelling: normalized growth reported below 0.9 becomes 1; at or above becomes 0.

Req: Record `CC(C)(C)NC(=S)N/N=C\c1ccccc1O` : is its normalized growth strictly below 0.9?
Resp: 1

Req: Queued: `O=C1Nc2ccccc2/C1=C\c1ccc(Cl)cc1`
Resp: 1

Req: Queued: `O=C(Nc1ccccc1)Nc1ccc(Cl)cc1[N+](=O)[O-]`
Resp: 0

Req: Queued: `O=[N+]([O-])c1cc(Cl)cc([N+](=O)[O-])c1Nc1ccccc1`
Resp: 0

Req: Queued: `Oc1c(Cl)cc(Cl)cc1/C=N\NC(=S)Nc1cc(C(F)(F)F)cc(C(F)(F)F)c1`
Resp: 1

Req: Queued: `OC(COc1ccc(F)cc1)(c1ccccc1)c1ccccc1`
Resp: 0

* * *

assay: chemical genetic growth profiling, strain panel (AID 1159580);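 note: tested at 20 µM; growth read once vehicle control cultures reached saturation at 30 °C; 1 = growth at the plate median or of vehicle wells; lower values mean less growth of the strain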; settings: S. cerevisiae deletion strains, growth OD, locus YBR135W, strain CKS1, stronger effect = lower value
The campaign covered roughly 5,500 compounds. About 2,000 (36%) were called active. Roughly 18% stayed inconclusive and do not appear here. Some of the results follow.
measured_property: normalized growth
Please respond with just the number, no unit label.

Req: // query normalized growth value for entry `O=C1Nc2ccccc2/C1=C\c1ccc(Cl)cc1`
Resp: 0.94

Req: Queued: `Cc1cc(Cl)ccc1NNC(=O)c1sccc1Cl`
Resp: 0.908

Req: Queued: `O=S(=O)(CS(=O)(=O)Oc1ccc(Cl)c(Cl)c1)Oc1ccc(Cl)c(Cl)c1`
Resp: 0.947

Req: Queued: Cc1c(C)c(C)c(C(O)c2ccccc2)c(C)c1C (configuration not stated)
Resp: 1

Req: Queued: `Oc1c(Cl)cc(Cl)cc1C=Nc1ccc(Sc2ccccc2)nc1Sc1ccccc1`
Resp: 0.954

Req: Queued: `Oc1c(Br)cc(Br)cc1/C=N\n1cnnc1`
Resp: 0.943

Req: Queued: `O=C1Nc2ccccc2/C1=C/c1ccc(C(F)(F)F)cc1Cl`
Resp: 0.966

Req: Queued: `CCNC(=S)N/N=C\c1cc(Cl)cc(Cl)c1O`
Resp: 0.92

Req: Queued: `Cc1cc(Cl)ccc1NNC(=O)c1sccc1Br`
Resp: 0.927

Req: Queued: CC(NC(=S)N/N=C\c1ccccc1O)c1ccccc1 (configuration not stated)
Resp: 0.971

Req: Queued: `Cc1ccc(NNC(=O)c2cccs2)cc1Cl`
Resp: 0.971

Req: Queued: `OC(COc1ccc(F)cc1)(c1ccccc1)c1ccccc1`
Resp: 0.965

* * *

Assign normalized growth to each entry below.
assay: chemical genetic growth profiling, strain panel (AID 1159580);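 note: tested at 20 µM; growth read once vehicle control cultures reached saturation at 30 °C; 1 = growth at the plate median or of vehicle wells; lower values mean less growth of the strain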; details: S. cerevisiae deletion strains, growth OD, locus YPL078C, strain atp4, stronger effect = lower value
Out of some 5,500 compounds screened, about 2,000 (36%) were called active. Not shown: some 18% with an inconclusive outcome. This is one part of the list.
Please respond with just the number, no unit label.

Req: // query normalized growth value for entry `O=c1c(O)c(-c2ccc(O)cc2O)oc2cc(O)cc(O)c12`
Resp: 0.994

Req: Queued: `O=c1c(O)c(-c2ccc(O)c(O)c2)oc2c(O[C@@H]3O[C@H](CO)[C@H](O)[C@@H](O)[C@H]3O)c(O)cc(O)c12`
Resp: 1.01

Req: Queued: `COC1=CC(=O)C(C(=O)c2ccccc2)=CC1=O`
Resp: 0.975

Req: Queued: C[C@@H]1O[C@@H](OC[C@H]2OC(Oc3c(-c4ccc(OCCO)c(OCCO)c4)oc4cc(OCCO)cc(O)c4c3=O)[C@H](O)[C@@H](O)[C@@H]2O)[C@H](O)[C@H](O)[C@H]1O (some centres undefined)
Resp: 0.952

Req: Queued: `COc1ccccc1/C=C\C(=O)O`
Resp: 0.987

Req: Queued: CC1O[C@@H](Oc2c(-c3ccc(O)c(O)c3)oc3cc(O)cc(O)c3c2=O)[C@H](O)[C@H](O)[C@H]1O (some centres undefined)
Resp: 0.997

Req: Queued: `O=c1c(O)c(-c2ccc(O)c(O)c2)oc2cc(O)cc(O)c12`
Resp: 0.927

Req: Queued: `O=c1cc(-c2ccc(O)cc2)oc2cc(O[C@@H]3O[C@H](CO)[C@@H](O)[C@H](O)[C@H]3O)cc(O)c12`
Resp: 0.968

Req: Queued: `COc1cc(OC)c2c(=O)c(O)c(-c3ccc(OC)c(OC)c3)oc2c1`
Resp: 0.958

* * *

experiment: chemical genetic growth profiling, strain panel (AID 1159580);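 note: tested at 20 µM; growth read once vehicle control cultures reached saturation at 30 °C; 1 = growth at the plate median or of vehicle wells; lower values mean less growth of the strain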; details: S. cerevisiae deletion strains, growth OD, locus YLR262C, strain YPT6 (second series), stronger effect = lower value
In all, about 5,500 compounds went through this assay and about 2,000 (36%) were called active. Roughly 18% stayed inconclusive and do not appear here. The list shows a part of the results.
measured_property: normalized growth
Please respond with just the number, no unit label.

Req: // query normalized growth value for entry OC1CC2CCCC(C1)N2Cc1ccccc1 (stereo unspecified)
Resp: 0.956

Req: Queued: COc1ccc2c(c1)CCC1C2CC[C@@]2(C)C1CC[C@@H]2O (stereo partly specified)
Resp: 0.505

Req: Queued: `O=C(O[C@@H]1Cc2c(O)cc(O)cc2O[C@@H]1c1cc(O)c(=O)c2c(O)c(O)cc([C@H]3Oc4cc(O)cc(O)c4C[C@H]3O)c2c1)c1cc(O)c(O)c(O)c1`
Resp: 0.524

Req: Queued: N#Cc1nn(-c2c(Cl)cc(C(F)(F)F)cc2Cl)c(N)c1S(=O)C(F)(F)F (stereo unspecified)
Resp: 0.521

Req: Queued: C[C@]12CCC3c4ccc(O)cc4CCC3C1CC[C@@H]2O (stereo partly specified)
Resp: 0.738

Req: Queued: CC1CC[C@]2(NC1)O[C@H]1CC3C4CC[C@H]5C[C@@H](O)CC[C@]5(C)C4CC[C@]3(C)[C@H]1[C@@H]2C (stereo partly specified)
Resp: 0.323

Req: Queued: `COc1ccc2ccc(=O)oc2c1`
Resp: 1.02

Req: Queued: CCCC(C)(COC(N)=O)COC(=O)NC(C)C (stereo unspecified)
Resp: 0.991

Req: Queued: `NC(=O)CN1CCCC1=O`
Resp: 0.987

Req: Queued: C=C1CCC2(OC1)OC1CC3C4CC=C5CC(O)CC(O)C5(C)C4CCC3(C)C1C2C (stereo unspecified)
Resp: 0.548

Req: Queued: CC1CCC2(OC1)OC1CC3C4CC[C@H]5C[C@@H](O)CC[C@]5(C)C4CC(=O)[C@]3(C)C1C2C (stereo partly specified)
Resp: 0.97

Req: Queued: CCC1OC(=O)[C@H](C)C(=O)[C@H](C)[C@@H](OC2O[C@H](C)C[C@H](N(C)C)[C@H]2O)[C@](C)(OC)C2(CCCn3cnc(-c4cccnc4)c3)C[C@@H](C)C(=O)[C@H](C)[C@H]3N(C2)C(=O)O[C@]13C (stereo partly specified)
Resp: 0.978

Req: Queued: CC1(C)C=CC(=O)[C@@]2(C)C1CC(=O)[C@]1(C)C2CC[C@@]2(C)[C@H](c3ccoc3)OC(=O)C3OC321 (stereo partly specified)
Resp: 0.905

Req: Queued: `O=c1ccc2c(O)c3ccoc3cc2o1`
Resp: 1.01

Req: Queued: `CC1(C)O[C@H]2CC(=O)OC[C@]23[C@H]2CC[C@@]4(C)[C@H](c5ccoc5)OC(=O)[C@H]5O[C@]54[C@]2(C)C(=O)C[C@@H]13`
Resp: 1.01

Req: Queued: COc1ccc2c(c1)CCC1C2CCC2(C)C1C[C@@H](O)C2O (stereo partly specified)
Resp: 0.755

Req: Queued: CC1(C)C2CC(=O)[C@]3(C)C(CC[C@@]4(C)[C@H](c5ccoc5)OC(=O)C5OC543)[C@@]2(C)[C@@H](O)C[C@H]1O (stereo partly specified)
Resp: 1.01

Req: Queued: O=C1C=C2C(=CCOC2O)O1 (stereo unspecified)
Resp: 0.337

Req: Queued: `CCc1cc(C(N)=S)ccn1`
Resp: 1.04

Req: Queued: CO[C@@]1(NC(=O)C(C(=O)O)c2ccc(O)cc2)C(=O)N2C(C(=O)O)=C(CSc3nnnn3C)CO[C@@H]21 (stereo partly specified)
Resp: 0.946

Req: Queued: O=c1ccc2cc(OC3OC(CO)C(O)C(O)C3O)c(O)cc2o1 (stereo unspecified)
Resp: 0.98

Req: Queued: C[C@]12CCC3c4ccc(O)cc4CCC3C1C[C@@H](O)[C@@H]2O (stereo partly specified)
Resp: 1.04

Req: Queued: CC(=O)[C@@]1(O)CCC2C3C[C@H](C)C4=CC(=O)C=CC4(C)[C@@]3(F)[C@@H](O)C[C@@]21C (stereo partly specified)
Resp: 0.981

Req: Queued: CC(=O)Oc1ccc2c(c1OC(C)=O)OCC1(O)Cc3c(cc(OC(C)=O)c(OC(C)=O)c3OC(C)=O)C21 (stereo unspecified)
Resp: 1

Req: Queued: `CCCCCc1c2c(cc(O)c1C(=O)O)OC(=O)c1c(cc(OC)cc1C(=O)CCCC)O2`
Resp: 0.993

Req: Queued: CC1(C)C(=O)C=C[C@@]2(C)C1CC(=O)[C@]1(C)C2CC[C@@]2(C)[C@H](c3ccoc3)OC(=O)[C@H]3O[C@]321 (stereo partly specified)
Resp: 0.972

Req: Queued: C[C@]12CCC3c4ccc(OS(=O)(=O)O)cc4CCC3C1CC[C@H]2O (stereo partly specified)
Resp: 0.977

Req: Queued: CC1(C)C2CC(=O)[C@]3(C)C(CC[C@@]4(C)[C@H](c5ccoc5)OC(=O)[C@H]5O[C@]543)[C@@]2(C)C(=O)C[C@H]1O (stereo partly specified)
Resp: 0.982

Req: Queued: CCN(Cc1ccncc1)C(=O)C(CO)c1ccccc1 (stereo unspecified)
Resp: 1.07

Req: Queued: `CC[n+]1c(-c2ccccc2)c2cc(N)ccc2c2ccc(N)cc21`
Resp: 1.01

Req: Queued: C=CC1C2=CCOC(=O)C2=COC1OC1OC(CO)C(O)C(O)C1O (stereo unspecified)
Resp: 1.03

Req: Queued: C[C@@H]1CC[C@@]2(OC1)OC1CC3C4CC=C5C[C@@H](O)CC[C@]5(C)C4CC[C@]3(C)C1[C@@H]2C (stereo partly specified)
Resp: 0.994

Req: Queued: Oc1cc2c(cc1O)C1c3ccc(O)c(O)c3OCC1(O)C2 (stereo unspecified)
Resp: 0.979

Req: Queued: `O=C(O[C@@H]1Cc2c(O)cc(O)cc2O[C@@H]1c1cc(O)c(=O)c2c(O)c(O)cc([C@H]3Oc4cc(O)cc(O)c4C[C@H]3OC(=O)c3cc(O)c(O)c(O)c3)c2c1)c1cc(O)c(O)c(O)c1`
Resp: 0.539

Req: Queued: C[C@@H]1CC[C@@]2(NC1)O[C@H]1C[C@H]3C4CC=C5C[C@@H](O)CC[C@]5(C)C4CC[C@]3(C)C1[C@@H]2C (stereo partly specified)
Resp: 0.341

Req: Queued: Oc1ccc2c(c1)OCC1(O)Cc3cc(O)c(O)cc3C21 (stereo unspecified)
Resp: 1.04
